Parameter cytochrome c release ratio: see the listing below.
test: blockers of cytochrome c efflux from mitochondria – biochemical, purified mitochondria (AID 1603); conditions: stronger effect = lower value;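 further: mouse liver mitochondria challenged with calcium chloride; signal normalized to the plate average as 100%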
// response body must contain only the number

Recorded cytochrome c release ratio, per entry:
[[record]]
compound = "C1CCC(C(CC2CCCCN2)C2CCCCC2)CC1 (stereo not drawn)"
test_result = 1.56

[[record]]
compound = "COc1ccc(CN(CCN(C)C)c2ncccn2)cc1"
test_result = 1.27


Could you now look at the following compound, please?
Reported cytochrome c release ratio, compound `CCOC(=O)[C@H](CCc1ccccc1)N[C@@H](C)C(=O)N1CCC[C@H]1C(=O)O` : ____
1.13

====

experiment: viability loss with induced miR-34 in A549 – imaging, A549 dox-inducible miR-34, nuclei and caspase counts, primary screen (AID 1347080); settings: A549 miR-34 inducible, Hoechst nuclei count, 48 h; measured here: total cells with miR-34 induction; stronger effect = lower value; further: test concentration not given here
Mark yes only when cell count stays strictly below 9000. Values equal to the cut-off are no.

[[record]]
molecule = "CC[N+](C)(C)Cc1ccccc1Br"
label = "yes"

[[record]]
molecule = "CCCCC1(COC(=O)CCC(=O)O)C(=O)N(c2ccccc2)N(c2ccccc2)C1=O"
label = "yes"

[[record]]
molecule = "COc1cccc(OC)c1C(=O)N[C@@H]1C(=O)N2[C@@H]1SC(C)(C)[C@@H]2C(=O)O"
label = "no"

[[record]]
molecule = "CCC(=O)O[C@H]1[C@H](O[C@@H]2[C@@H](C)[C@H](O[C@H]3C[C@@](C)(OC)[C@@H](O)[C@H](C)O3)[C@@H](C)C(=O)O[C@H](CC)[C@@](C)(O)[C@H](O)[C@@H](C)C(=O)[C@H](C)C[C@@]2(C)O)O[C@H](C)C[C@@H]1N(C)C"
label = "no"

[[record]]
molecule = "CC1=C(C)C(=O)C(C(CCCCCC(=O)O)c2ccccc2)=C(C)C1=O (stereo not drawn)"
label = "no"


# strict comparison: is reported cell count < 9000? input = `O=C1c2ccccc2C(=O)c2c1ccc(O)c2O`
yes

Also CCCCC(CC)CN=C(N)NC(N)=NCCCCCCN=C(N)NC(N)=NCC(CC)CCCC (stereo not drawn) , if possible.
yes

Also Cc1ccc(C(=O)C(C)CN2CCCCC2)cc1 (stereo not drawn) , if possible.
yes

Also `CC(=O)OCC1=C(C(=O)O)N2C(=O)[C@@H](NC(=O)CSc3ccncc3)[C@H]2SC1` , if possible.
no

Also CCCCN(CCCC)CCC(O)c1cc2c(Cl)cc(Cl)cc2c2cc(C(F)(F)F)ccc12 (stereo not drawn) , if possible.
yes

Also `CC(=O)Oc1cccc(O)c1` , if possible.
no

Also `Cc1cc(C(C)(C)C)c(O)c(C(C)(C)C)c1` , if possible.
no

Also `C[C@@H]1CN(CCCn2c3ccccc3c3ccccc32)C[C@H](C)N1` , if possible.
yes

Also `CNC[C@H](O)c1ccc(O)c(O)c1` , if possible.
no

Also `Nc1ncnc2c1ncn2[C@@H]1O[C@H](CO)[C@@H](O)[C@H]1O` , if possible.
no

Also `C=CCc1ccc(O)c(OC)c1` , if possible.
no

Also `CC(C)[C@H](N)C(=O)OCCOCn1cnc2c(=O)[nH]c(N)nc21` , if possible.
no

Also `CCn1cc(C(=O)O)c(=O)c2cnc(N3CCNCC3)nc21` , if possible.
no

Also `CC(=O)OCC(COC(C)=O)OC(C)=O` , if possible.
no

Also `CCOC(=O)NNc1nncc2ccccc12` , if possible.
yes

Also `O=C(CCCCC(=O)Nc1c(I)cc(I)c(C(=O)O)c1I)Nc1c(I)cc(I)c(C(=O)O)c1I` , if possible.
no

Also `Cc1cc(O)cc(C)c1Cl` , if possible.
no

Also `Cc1c(NC(C)C)c(=O)n(-c2ccccc2)n1C` , if possible.
yes

Also `O=C1c2cccc(O)c2C(=O)c2c(O)cccc21` , if possible.
no

Also `CCN(CC)C(=O)c1cccc(C)c1` , if possible.
no

Also `C#CCN[C@@H]1CCc2ccccc21` , if possible.
yes

Also `CCN(CC)CCNC(=O)c1cc(Br)c(N)cc1OC` , if possible.
yes

Also `CC(=O)[C@@]1(O)CC[C@H]2[C@@H]3C[C@H](C)C4=CC(=O)C=C[C@]4(C)[C@@]3(F)[C@@H](O)C[C@@]21C` , if possible.
yes

Also `OCc1ccccc1O` , if possible.
no

Also O=C(O)CCCCC1CCSS1 (stereo not drawn) , if possible.
yes

Also `C[C@@H]1C[C@H]2[C@@H]3C[C@H](F)C4=CC(=O)C=C[C@]4(C)[C@@]3(F)[C@@H](O)C[C@]2(C)[C@@]1(O)C(=O)CO` , if possible.
yes

Also `CCN(CC)Cc1cc(Nc2ccnc3cc(Cl)ccc23)ccc1O` , if possible.
yes

Also `Nc1ccc(C(=O)Oc2ccccc2)c(O)c1` , if possible.
no

Recorded values, source PubChem BioAssay.
